Data provenance: ChEMBL document CHEMBL1149052

tested.system: UniProtKB Q72547
procedure.text: Inhibition of HIV1 reverse transcriptase
property.label: IC50

Examples from the recorded data:
smiles: CC1(C)CC[C@]2(C(=O)O)CC=C3[C@]4(C)CC[C@H]5C(C)(C)[C@@H](O)[C@H](O)C[C@]5(C)[C@H]4CC[C@@]3(C)[C@@H]2C1
tested.system: UniProtKB Q72547
IC50: 3.4 µM
--
smiles: COc1cc2c(ccc3c4cc(OC)c(OC)cc4c[n+](C)c23)cc1O
tested.system: UniProtKB Q72547
IC50: 13 µM

// next item, IC50 requested
[Q] Which IC50 value belongs to `CC1(C)CC[C@]2(C(=O)O)CC=C3[C@]4(C)CC[C@H]5C(C)(C)[C@@H](OC(=O)c6ccc(O)cc6)C[C@@H](O)[C@]5(C)[C@H]4CC[C@@]3(C)[C@@H]2C1` ?
[A] 3.7 µM

* * *

tested.system: Human immunodeficiency virus type 1 reverse transcriptase (Human immunodeficiency virus 1)
Known log10 of IC50 of a selection of molecules
Log10 applied to IC50; unit prior to transform: µM.

molecule: CC[C@H]1CN2CCc3cc(OC)c(OC)cc3[C@@H]2C[C@@H]1CC1=NCCc2cc(OC)c(OC)cc21
recorded.measurement: 1.15
--
molecule: CC(=O)O[C@H]1CC[C@]2(C)[C@H]3CC[C@]4(C)C(=CC[C@@]5(C(=O)O)CCC(C)(C)C[C@H]54)[C@]3(C)CC[C@H]2C1(C)C [ACETYL ALEURITOLIC ACID]
recorded.measurement: 2.13
--
molecule: CC1(C)CC[C@]2(C(=O)O)CC=C3[C@]4(C)CC[C@H]5C(C)(C)[C@@H](OC(=O)c6ccc(O)cc6)[C@H](OC(=O)c6ccc(O)cc6)C[C@]5(C)[C@H]4CC[C@@]3(C)[C@@H]2C1
recorded.measurement: 0.57

[Q] I am curious: what log10 of IC50 value has been reported for CC1(C)CC[C@]2(C(=O)O)CC=C3[C@]4(C)CC[C@H]5C(C)(C)[C@@H](O)CC[C@]5(C)[C@H]4CC[C@@]3(C)[C@@H]2C1 [ALEURITOLIC ACID] ?
[A] 1.40

[Q] And `CC1(C)CC[C@]2(C(=O)O)CC=C3[C@]4(C)CC[C@H]5C(C)(C)[C@@H](O)C[C@@H](O)[C@]5(C)[C@H]4CC[C@@]3(C)[C@@H]2C1` ?
[A] 0.69

* * *

procedure.text: Inhibition of HIV2 reverse transcriptase
Set-up: species or system Human immunodeficiency virus 2
A collection of compounds and their measured IC50
The reply should contain only the number, in µM.

Known results for compounds:
smiles: CC1(C)CC[C@]2(C(=O)O)CC=C3[C@]4(C)CC[C@H]5C(C)(C)[C@@H](OC(=O)c6ccc(O)cc6)[C@H](OC(=O)c6ccc(O)cc6)C[C@]5(C)[C@H]4CC[C@@]3(C)[C@@H]2C1
unit.annotation: µM
IC50: 28.9
//
smiles: CC1(C)CC[C@]2(C(=O)O)CC=C3[C@]4(C)CC[C@H]5C(C)(C)[C@@H](OC(=O)c6ccc(O)cc6)C[C@@H](O)[C@]5(C)[C@H]4CC[C@@]3(C)[C@@H]2C1
unit.annotation: µM
IC50: 59

[Q] Suppose we examine the compound `CC1(C)CC[C@]2(C(=O)O)CC=C3[C@]4(C)CC[C@H]5C(C)(C)[C@@H](O)[C@H](O)C[C@]5(C)[C@H]4CC[C@@]3(C)[C@@H]2C1` ; what IC50 value has been reported?
[A] 56.7

[Q] Please answer likewise for `CC1(C)CC[C@]2(C(=O)O)CC=C3[C@]4(C)CC[C@H]5C(C)(C)[C@@H](O)C[C@@H](O)[C@]5(C)[C@H]4CC[C@@]3(C)[C@@H]2C1`
[A] 53.1

[Q] And the next one, `CC1(C)CC[C@]2(C(=O)O)CC=C3[C@]4(C)CC[C@H]5C(C)(C)[C@@H](O)CC[C@]5(C)[C@H]4CC[C@@]3(C)[C@@H]2C1` ?
[A] 78.7
